Experiment: Volume of distribution in rat at 2 mg/kg, iv
Format: ADME, organism-based
Settings: in vivo
measure: Vd (L/kg)
Record the value in L/kg, omitting the unit from your answer.

[in] Would you mind telling me what Vd value was observed for CCOC(=O)C1=C(NN2CCN(CC(F)(F)F)CC2)O/C(=C\c2c[nH]c3ncccc23)C1=O [MONZOSERTIB] ?
[out] 3.24

* * *

Assay: Cmax in dog at 2 mg/kg, po
Assay type: ADME, organism-based, Canis lupus familiaris
Parameters: route oral, dose 2 mg/kg
Conditions: in vivo
measure: Cmax

[in] # get_value(readout='Cmax', item= "CCOC(=O)C1=C(NN2CCN(CC(F)(F)F)CC2)O/C(=C\c2c[nH]c3ncccc23)C1=O" )
[out] 96.1 ng/mL

* * *

Test: Half life in mouse at 1 mg/kg, iv
Assay type: ADME, organism-based
Conditions: in vivo
measure: half-life (min)
Respond numerically; units are min and should not be typed.

[in] Give the measured half-life of CCOC(=O)C1=C(NN2CCN(CC(F)(F)F)CC2)O/C(=C\c2c[nH]c3ncccc23)C1=O [MONZOSERTIB] .
[out] 19.2

* * *

Test: MRT in mouse at 1 mg/kg, iv
Format: ADME, organism-based
Conditions: in vivo
measure: MRT (min)
Response body: numeric value in min, unit text excluded.

[in] Entry CCOC(=O)C1=C(NN2CCN(CC(F)(F)F)CC2)O/C(=C\c2c[nH]c3ncccc23)C1=O [MONZOSERTIB] : reported MRT = ?
[out] 18

* * *

Experiment: Clearance in dog at 1 mg/kg, iv
Assay type: ADME, organism-based, Canis lupus familiaris
Details: in vivo
measure: clearance
Just the number plus its unit, please.

[in] Recorded clearance of "CCOC(=O)C1=C(NN2CCN(CC(F)(F)F)CC2)O/C(=C\c2c[nH]c3ncccc23)C1=O" , please.
[out] 13.5 mL/min/kg

* * *

Assay: Cmax in rat at 2 mg/kg, iv
Type: ADME, organism-based
Parameters: route intravenous, dose 2 mg/kg
Settings: in vivo
measure: Cmax (ng/mL)
Return type: number; implicit unit ng/mL.

[in] Consider the compound "CCOC(=O)C1=C(NN2CCN(CC(F)(F)F)CC2)O/C(=C\c2c[nH]c3ncccc23)C1=O" and give its measured Cmax.
[out] 1210

* * *

Assay: Metabolic stability in dog liver microsomes assessed as parent compound remaining after 30 mins
Type: ADME, Canis lupus familiaris, Microsome
Conditions: read-out: Stability
measure: remaining at 0.5 h (%)
Record the value in %, omitting the unit from your answer.

[in] Return reported remaining at 0.5 h; argument: "CCOC(=O)C1=C(NN2CCN(CC(F)(F)F)CC2)O/C(=C\c2c[nH]c3ncccc23)C1=O"
[out] 81

* * *

Assay: Half life in rat at 10 mg/kg, po
Format: ADME, organism-based
Settings: in vivo
measure: half-life (h)
Report only the number, with the unit h understood.

[in] Reported half-life for "CCOC(=O)C1=C(NN2CCN(CC(F)(F)F)CC2)O/C(=C\c2c[nH]c3ncccc23)C1=O" : what is it?
[out] 6.1

* * *

Assay: Cmax in rat at 10 mg/kg, po
Format: ADME, organism-based
Design: route oral, dose 10 mg/kg
Details: in vivo
measure: Cmax (ng/mL)
Express the result in ng/mL but write the number alone.

[in] May I ask what Cmax has been recorded for "CCOC(=O)C1=C(NN2CCN(CC(F)(F)F)CC2)O/C(=C\c2c[nH]c3ncccc23)C1=O" ?
[out] 426

Cited source: ChEMBL document CHEMBL4828769
